PROCEDURE_TEXT: Plasma pharmacokinetics after a single intravenous injection
Type: in vivo, mice
DETAILS: C57Bl/6J, mouse, plasma, iv, 0.9 mg/kg
READOUT_NAME: half-life (min)
Answer in min, number only, no unit symbol.

[ask] Give half-life for the following compound: CCN(CC)CCNC(=O)c1c(C)[nH]c(/C=C2\C(=O)Nc3ccc(F)cc32)c1C [Sunitinib, sunitinib]
[reply] 25
